# Test system: NCI-H2122
# assayText: combination cScore with adagrasib (Bliss gap around IC50) (%PoC); higher = stronger additive effect
compounds and their reported combination cScore with adagrasib
observedProperty: combination cScore with adagrasib

{"columns": ["compound", "measValue"],
 "data": [
  ["CC1(C)CCC(CN2CCN(c3ccc(C(=O)NS(=O)(=O)c4ccc(NCC5CCOCC5)c([N+](=O)[O-])c4)c(Oc4cnc5[nH]ccc5c4)c3)CC2)=C(c2ccc(Cl)cc2)C1 [ABT-199] + C=C(F)C(=O)N1CCN(c2nc(OC[C@@H]3CCCN3C)nc3c2CCN(c2cccc4cccc(Cl)c24)C3)C[C@@H]1CC#N", 3.14],
  ["CC[C@H](C)C(=O)O[C@H]1C[C@@H](C)C=C2C=C[C@H](C)[C@H](CC[C@@H]3C[C@@H](O)CC(=O)O3)[C@H]21 [Lovastatin] + C=C(F)C(=O)N1CCN(c2nc(OC[C@@H]3CCCN3C)nc3c2CCN(c2cccc4cccc(Cl)c24)C3)C[C@@H]1CC#N", -4.64],
  ["N#CN=C(NCCCCCCOc1ccc(Cl)cc1)Nc1ccncc1 [GMX1778] + C=C(F)C(=O)N1CCN(c2nc(OC[C@@H]3CCCN3C)nc3c2CCN(c2cccc4cccc(Cl)c24)C3)C[C@@H]1CC#N", -7.75],
  ["C[C@H](CS)C(=O)N1CCC[C@H]1C(=O)O [Captopril] + C=C(F)C(=O)N1CCN(c2nc(OC[C@@H]3CCCN3C)nc3c2CCN(c2cccc4cccc(Cl)c24)C3)C[C@@H]1CC#N", -0.24]
]}
